B1: glmS ribozyme (parent)
chain: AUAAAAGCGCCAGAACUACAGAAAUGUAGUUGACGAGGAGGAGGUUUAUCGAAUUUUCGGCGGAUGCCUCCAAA

# Variants of: B1
# run.description: self-cleavage kobs at 2500 uM GlcN6P; higher = faster cleavage; RNA array
# assay.setup: with glucosamine-6-phosphate
Fewer inactive variants are shown than the library holds.
Quick list: self-cleavage kobs at 2500 uM GlcN6P per entry.
Numeric only. Scale: s⁻¹

# example entries with known answers
>>> recorded_value("A12C A15G A39C")
0.000163
>>> recorded_value("G9U A39U C61A")
0.000376
>>> recorded_value("C16A C71G")
"9.36e-05"

For C11A U31G , what is its reported self-cleavage kobs at 2500 uM GlcN6P?
0.000179

// repeat for A6C C34G C50G and report
4.66e-05

// repeat for G29U U47G U54G and report
0.000533

// repeat for A24C U47G C67A and report
0.000647

meta.source: the supplement of paper PMC7125110
